# assayed system: Delta-type opioid receptor (Rattus norvegicus)
# Sequence (P33533 whole entry): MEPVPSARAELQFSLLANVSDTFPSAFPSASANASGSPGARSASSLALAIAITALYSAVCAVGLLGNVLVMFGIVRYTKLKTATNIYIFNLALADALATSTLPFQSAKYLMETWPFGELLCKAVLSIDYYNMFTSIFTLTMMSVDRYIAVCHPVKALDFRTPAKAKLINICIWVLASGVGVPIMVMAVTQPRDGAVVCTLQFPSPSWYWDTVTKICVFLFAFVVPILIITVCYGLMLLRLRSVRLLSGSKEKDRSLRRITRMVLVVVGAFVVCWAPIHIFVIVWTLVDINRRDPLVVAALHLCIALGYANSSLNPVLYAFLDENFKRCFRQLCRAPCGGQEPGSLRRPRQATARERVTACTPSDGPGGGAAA
# assay method text: Agonist activity at rat DOR transfected in rat C6 cell membranes after 1 hr by [35S]GTPgammaS assay
# Assay type: functional
# condition parameters: read-out: EC50
Reported EC50 values are given for each entry in this list.
readout: EC50 (nM)

- compound structure string: "Cc1cc(O)cc(C)c1C[C@H](N)C(=O)N[C@@H]1CCN(CC(N)=O)c2ccc(Cc3ccccc3)cc21"
  uom: "nM"
  recorded measurement: 270
- compound structure string: "COCC(=O)N1CC[C@@H](NC(=O)[C@@H](N)Cc2c(C)cc(O)cc2C)c2cc(Cc3ccccc3)ccc21"
  uom: "nM"
  recorded measurement: 67
- compound structure string: "CCC(=O)N1CC[C@@H](NC(=O)[C@@H](N)Cc2c(C)cc(O)cc2C)c2cc(Cc3ccccc3)ccc21"
  uom: "nM"
  recorded measurement: 32
- compound structure string: "Cc1cc(O)cc(C)c1C[C@H](N)C(=O)N[C@@H]1CCN(C(=O)C(C)C)c2ccc(Cc3ccccc3)cc21"
  uom: "nM"
  recorded measurement: 25
- compound structure string: "COC(=O)N1CC[C@@H](NC(=O)[C@@H](N)Cc2c(C)cc(O)cc2C)c2cc(Cc3ccccc3)ccc21"
  uom: "nM"
  recorded measurement: 14
- compound structure string: "Cc1cc(O)cc(C)c1C[C@H](N)C(=O)N[C@@H]1CCN(C(=O)C2CC2)c2ccc(Cc3ccccc3)cc21"
  uom: "nM"
  recorded measurement: 10
- compound structure string: "CCCC(=O)N1CC[C@@H](NC(=O)[C@@H](N)Cc2c(C)cc(O)cc2C)c2cc(Cc3ccccc3)ccc21"
  uom: "nM"
  recorded measurement: 8.1
- compound structure string: "CCOC(=O)CN1CC[C@@H](NC(=O)[C@@H](N)Cc2c(C)cc(O)cc2C)c2cc(Cc3ccccc3)ccc21"
  uom: "nM"
  recorded measurement: 15
- compound structure string: "Cc1cc(O)cc(C)c1C[C@H](N)C(=O)N[C@@H]1CCN(C(=O)C2CCC2)c2ccc(Cc3ccccc3)cc21"
  uom: "nM"
  recorded measurement: 5.1

----------
pKi: −log10 of the molar value.
// pKi collected for Mu-type opioid receptor (Rattus norvegicus, UniProt P33535)

- compound structure string: "COC(=O)N1CC[C@@H](NC(=O)[C@@H](N)Cc2c(C)cc(O)cc2C)c2cc(Cc3ccc4ccccc4c3)ccc21"
  pKi: 9.49
- compound structure string: "CCCC(=O)N1CC[C@@H](NC(=O)[C@@H](N)Cc2c(C)cc(O)cc2C)c2cc(Cc3ccc4ccccc4c3)ccc21"
  pKi: 9.85
- compound structure string: "Cc1cc(O)cc(C)c1C[C@H](N)C(=O)N[C@@H]1CCN(CC(=O)O)c2ccc(Cc3ccccc3)cc21"
  pKi: 8.36
- compound structure string: "Cc1cc(O)cc(C)c1C[C@H](N)C(=O)N[C@@H]1CCN(C(=O)C2CC2)c2ccc(Cc3ccccc3)cc21"
  pKi: 10.00
- compound structure string: "Cc1cc(O)cc(C)c1C[C@H](N)C(=O)N[C@@H]1CCN(C(=O)C(C)C)c2ccc(Cc3ccccc3)cc21"
  pKi: 9.42
- compound structure string: "COC(=O)N1CC[C@@H](NC(=O)[C@@H](N)Cc2c(C)cc(O)cc2C)c2cc(Cc3ccccc3)ccc21"
  pKi: 9.72
- compound structure string: "CCC(=O)N1CC[C@@H](NC(=O)[C@@H](N)Cc2c(C)cc(O)cc2C)c2cc(Cc3ccccc3)ccc21"
  pKi: 9.92
- compound structure string: "COCC(=O)N1CC[C@@H](NC(=O)[C@@H](N)Cc2c(C)cc(O)cc2C)c2cc(Cc3ccccc3)ccc21"
  pKi: 9.82
- compound structure string: "CCC(=O)N1CC[C@@H](NC(=O)[C@@H](N)Cc2c(C)cc(O)cc2C)c2cc(Cc3ccc4ccccc4c3)ccc21"
  pKi: 9.55
- compound structure string: "CCOC(=O)CN1CC[C@@H](NC(=O)[C@@H](N)Cc2c(C)cc(O)cc2C)c2cc(Cc3ccccc3)ccc21"
  pKi: 9.43
- compound structure string: "CCCC(=O)N1CC[C@@H](NC(=O)[C@@H](N)Cc2c(C)cc(O)cc2C)c2cc(Cc3ccccc3)ccc21"
  pKi: 10.00
- compound structure string: "Cc1cc(O)cc(C)c1C[C@H](N)C(=O)N[C@@H]1CCN(CC(N)=O)c2ccc(Cc3ccccc3)cc21"
  pKi: 9.64
- compound structure string: "Cc1cc(O)cc(C)c1C[C@H](N)C(=O)N[C@@H]1CCN(C(=O)c2ccccc2)c2ccc(Cc3ccccc3)cc21"
  pKi: 10.10
- compound structure string: "Cc1cc(O)cc(C)c1C[C@H](N)C(=O)N[C@@H]1CCN(C(=O)C2CCC2)c2ccc(Cc3ccccc3)cc21"
  pKi: 9.64

----------
Reported EC50 values are given for each entry in this list.
# assayed system: UniProt:P41145
# assay method text: Agonist activity at human KOR expressed in CHO cell membranes after 1 hr by [35S]GTPgammaS assay
# Assay type: functional
# condition parameters: read-out: EC50

- compound structure string: "Cc1cc(O)cc(C)c1C[C@H](N)C(=O)N[C@@H]1CCN(C(=O)C2CC2)c2ccc(Cc3ccccc3)cc21"
  uom: "µM"
  limit qualifier: "="
  EC50: 1
- compound structure string: "Cc1cc(O)cc(C)c1C[C@H](N)C(=O)N[C@@H]1CCN(C(=O)C(C)C)c2ccc(Cc3ccccc3)cc21"
  uom: "µM"
  limit qualifier: ">"
  EC50: 1.3
- compound structure string: "Cc1cc(O)cc(C)c1C[C@H](N)C(=O)N[C@@H]1CCN(C(=O)c2ccccc2)c2ccc(Cc3ccccc3)cc21"
  uom: "µM"
  limit qualifier: "="
  EC50: 0.43
- compound structure string: "COCC(=O)N1CC[C@@H](NC(=O)[C@@H](N)Cc2c(C)cc(O)cc2C)c2cc(Cc3ccccc3)ccc21"
  uom: "µM"
  limit qualifier: ">"
  EC50: 1.7
- compound structure string: "COC(=O)N1CC[C@@H](NC(=O)[C@@H](N)Cc2c(C)cc(O)cc2C)c2cc(Cc3ccccc3)ccc21"
  uom: "µM"
  limit qualifier: "="
  EC50: 0.25
- compound structure string: "CCC(=O)N1CC[C@@H](NC(=O)[C@@H](N)Cc2c(C)cc(O)cc2C)c2cc(Cc3ccccc3)ccc21"
  uom: "µM"
  limit qualifier: "="
  EC50: 0.88

----------
Reported Emax values are given for each entry in this list.
# assayed system: Kappa-type opioid receptor (Homo sapiens, UniProt P41145)
# Sequence (P41145 whole entry): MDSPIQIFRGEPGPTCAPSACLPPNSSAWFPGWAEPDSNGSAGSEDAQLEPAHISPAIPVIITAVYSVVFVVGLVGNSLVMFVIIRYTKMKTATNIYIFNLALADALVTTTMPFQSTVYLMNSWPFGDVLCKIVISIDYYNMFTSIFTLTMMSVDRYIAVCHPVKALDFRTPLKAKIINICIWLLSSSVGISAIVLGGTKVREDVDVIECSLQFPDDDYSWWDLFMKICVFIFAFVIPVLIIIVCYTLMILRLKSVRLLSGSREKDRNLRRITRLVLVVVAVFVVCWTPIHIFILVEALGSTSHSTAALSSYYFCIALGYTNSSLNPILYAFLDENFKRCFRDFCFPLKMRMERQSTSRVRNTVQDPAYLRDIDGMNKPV
# assay method text: Agonist activity at human KOR expressed in CHO cell membranes at 10 uM after 1 hr by [35S]GTPgammaS assay relative to U69,593
# Type: functional

- compound structure string: "COCC(=O)N1CC[C@@H](NC(=O)[C@@H](N)Cc2c(C)cc(O)cc2C)c2cc(Cc3ccccc3)ccc21"
  Emax, %: 38
- compound structure string: "Cc1cc(O)cc(C)c1C[C@H](N)C(=O)N[C@@H]1CCN(C(=O)C2CC2)c2ccc(Cc3ccccc3)cc21"
  Emax, %: 32
- compound structure string: "COC(=O)N1CC[C@@H](NC(=O)[C@@H](N)Cc2c(C)cc(O)cc2C)c2cc(Cc3ccccc3)ccc21"
  Emax, %: 28
- compound structure string: "Cc1cc(O)cc(C)c1C[C@H](N)C(=O)N[C@@H]1CCN(CC(N)=O)c2ccc(Cc3ccccc3)cc21"
  Emax, %: 49
- compound structure string: "CCCC(=O)N1CC[C@@H](NC(=O)[C@@H](N)Cc2c(C)cc(O)cc2C)c2cc(Cc3ccccc3)ccc21"
  Emax, %: 22

----------
# assayed system: Kappa-type opioid receptor (Homo sapiens, UniProt P41145)
# assay method text: Agonist activity at human KOR expressed in CHO cell membranes at 10 uM after 1 hr by [35S]GTPgammaS assay relative to U69,593
# Assay type: functional
Calls of active or inactive are those of the source. No cut-off for these calls is given here.

- compound structure string: "Cc1cc(O)cc(C)c1C[C@H](N)C(=O)N[C@@H]1CCN(C(=O)c2ccccc2)c2ccc(Cc3ccccc3)cc21"
  assayed system: "Kappa-type opioid receptor (Homo sapiens, UniProt P41145)"
  Emax: "16%"
- compound structure string: "CCOC(=O)CN1CC[C@@H](NC(=O)[C@@H](N)Cc2c(C)cc(O)cc2C)c2cc(Cc3ccccc3)ccc21"
  assayed system: "Kappa-type opioid receptor (Homo sapiens, UniProt P41145)"
  Emax: "24%"
- compound structure string: "Cc1cc(O)cc(C)c1C[C@H](N)C(=O)N[C@@H]1CCN(C(=O)C2CCC2)c2ccc(Cc3ccccc3)cc21"
  assayed system: "Kappa-type opioid receptor (Homo sapiens, UniProt P41145)"
  Emax: "inactive"
- compound structure string: "CCC(=O)N1CC[C@@H](NC(=O)[C@@H](N)Cc2c(C)cc(O)cc2C)c2cc(Cc3ccccc3)ccc21"
  assayed system: "Kappa-type opioid receptor (Homo sapiens, UniProt P41145)"
  Emax: "32%"
- compound structure string: "Cc1cc(O)cc(C)c1C[C@H](N)C(=O)N[C@@H]1CCN(CC(=O)O)c2ccc(Cc3ccccc3)cc21"
  assayed system: "Kappa-type opioid receptor (Homo sapiens, UniProt P41145)"
  Emax: "inactive"
- compound structure string: "Cc1cc(O)cc(C)c1C[C@H](N)C(=O)N[C@@H]1CCN(C(=O)C(C)C)c2ccc(Cc3ccccc3)cc21"
  assayed system: "Kappa-type opioid receptor (Homo sapiens, UniProt P41145)"
  Emax: "41%"
- compound structure string: "CCC(=O)N1CC[C@@H](NC(=O)[C@@H](N)Cc2c(C)cc(O)cc2C)c2cc(Cc3ccc4ccccc4c3)ccc21"
  assayed system: "Kappa-type opioid receptor (Homo sapiens, UniProt P41145)"
  Emax: "15%"
- compound structure string: "CCCC(=O)N1CC[C@@H](NC(=O)[C@@H](N)Cc2c(C)cc(O)cc2C)c2cc(Cc3ccc4ccccc4c3)ccc21"
  assayed system: "Kappa-type opioid receptor (Homo sapiens, UniProt P41145)"
  Emax: "inactive"
